tgt: Dbp2 1-524 (Saccharomyces cerevisiae, UniProt P24783 1-524)
Sequence (P24783 1-524): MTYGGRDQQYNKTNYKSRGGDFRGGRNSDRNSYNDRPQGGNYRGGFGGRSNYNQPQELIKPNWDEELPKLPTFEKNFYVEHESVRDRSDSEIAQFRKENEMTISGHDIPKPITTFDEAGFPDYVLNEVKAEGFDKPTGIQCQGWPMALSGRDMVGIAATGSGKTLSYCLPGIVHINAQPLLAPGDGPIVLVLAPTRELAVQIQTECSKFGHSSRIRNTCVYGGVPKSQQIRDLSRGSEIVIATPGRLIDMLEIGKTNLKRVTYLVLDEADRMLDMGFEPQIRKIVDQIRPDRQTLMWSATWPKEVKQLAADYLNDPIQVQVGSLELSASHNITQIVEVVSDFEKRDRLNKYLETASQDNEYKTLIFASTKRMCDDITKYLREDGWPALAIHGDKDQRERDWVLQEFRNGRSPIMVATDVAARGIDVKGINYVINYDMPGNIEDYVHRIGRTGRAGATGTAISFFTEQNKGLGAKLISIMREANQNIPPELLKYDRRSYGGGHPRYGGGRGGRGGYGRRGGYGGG
protocolText: fluorescence anisotropy; Anisotropy: 25 mM Tris-HCl pH 7.5, 20 mM NaCl/30 mM KCl, 2 mM MgCl2, 1 mM DTT, 5 nM labelled nucleic acid, 25 C, 5 min; EMSA: 25 mM Tris-HCl pH 7.5, 30 mM KCl
conditionParameters: protein: recombinant; tags: His6-MBP removed by TEV; label: 3' FAM

- binder: "UUUUUUUUUUCUCUGCUCGACG (ssRNA) [R-S22]"
  unitsSymbol: "nM"
  Kd: 38.8
